src = ChEMBL document CHEMBL4346735

assay: Clearance in mouse at 3 mg/kg, iv; assay type: ADME, organism-based; settings: in vivo
Label true (1) when clearance >= 10 mL/min/kg; otherwise false (0).

Example results:
>>> classification("O=C(O)c1ccc(-n2cc(C(=O)c3c(Cl)cccc3C(F)(F)F)c3cccnc32)c(F)c1")
"true (1)"
>>> classification("O=C(O)c1ccc(-n2cc(C(=O)c3c(Cl)cccc3C(F)(F)F)c3c(F)cccc32)c(F)c1")
"false (0)"
>>> classification("O=C(O)c1ccc(-n2cc(C(=O)c3c(Cl)cccc3Cl)c3cccc(F)c32)cc1")
"true (1)"
>>> classification("Cc1cccc(Cl)c1C(=O)c1cn(-c2ccc(C(=O)O)cc2)c2ccccc12")
"false (0)"

Please tell me: is the compound `O=C(O)c1ccc(-n2cc(C(=O)c3c(Cl)cccc3Cl)c3ccccc32)c(F)c1` at or over 10 mL/min/kg in terms of clearance?
true (1)

====

assay: AUC (0 to infinity) in Sprague-Dawley rat at 10 mg/kg, po via gavage measured up to 24 hrs by LC-MS/MS analysis; format: ADME, organism-based; set-up: dose 10 mg/kg, time infinity, route oral; conditions: in vivo
measurementKind: AUC(0-inf)

# query: AUC(0-inf) of entry `O=C([O-])c1ccc(-n2cc(C(=O)c3c(Cl)cccc3Cl)c3cccc(F)c32)cc1.[Na+]`
7.59 µM·h

====

assay: Cmax in Balb/c mouse at 10 mg/kg, po; type: ADME, organism-based; parameters: dose 10 mg/kg, route oral; settings: in vivo
measurementKind: Cmax (µM)
Numeric answer only, unit µM assumed.

Look up Cmax for this molecule: `O=C([O-])c1ccc(-n2cc(C(=O)c3c(Cl)cccc3Cl)c3cccc(F)c32)cc1.[Na+]`
7

====

test: AUC (0 to 24 hrs) in Sprague-Dawley rat at 3 mg/kg, iv administered as single dose measured up to 24 hrs by LC-MS/MS analysis; type: ADME, organism-based; set-up: time < 24 hr, dose 3 mg/kg, route intravenous; conditions: in vivo
measurementKind: AUC(0-t) at 24 h

Look up AUC(0-t) at 24 h: `O=C([O-])c1ccc(-n2cc(C(=O)c3c(Cl)cccc3Cl)c3cccc(F)c32)cc1.[Na+]`
3.69 µM·h

====

experiment: Half life in Balb/c mouse at 10 mg/kg, po; type: ADME, organism-based; conditions: in vivo
measurementKind: half-life (h)
Your answer is read as h, so omit the unit and give the number.

I would be grateful if you could share the reported half-life for `O=C([O-])c1ccc(-n2cc(C(=O)c3c(Cl)cccc3Cl)c3cccc(F)c32)cc1.[Na+]` .
3.5

====

experiment: Metabolic stability in rat liver microsomes assessed as parent compound remaining at 1 uM preincubated for 5 mins followed by NADPH addition after 30 mins by LC-MS/MS analysis; assay type: ADME, Microsome; conditions: read-out: Stability
Recorded remaining at 0.5 h, 1 µM, one value per entry.
Numeric only. Scale: %

Some solved entries appear below for comparison.
>>> valuereported("O=C(O)c1ccc(-n2cc(C(=O)c3c(Cl)cccc3Cl)c3ccc(F)cc32)cc1")
61
>>> valuereported("O=C(O)c1ccc(-n2cc(C(=O)c3c(Cl)cccc3C(F)(F)F)c3c(F)cccc32)cc1")
65
>>> valuereported("O=C(O)c1ccc(-n2cc(C(=O)c3c(Cl)cccc3Cl)c3ccccc32)cc1")
76

# lookup: remaining at 0.5 h, 1 µM of `O=C(O)c1ccc(-n2cc(C(=O)c3c(Cl)cccc3Cl)c3ccccc32)cc1C(F)(F)F`
61

// returns reported remaining at 0.5 h, 1 µM for input `O=C(O)c1ccc(-n2cc(C(=O)c3c(Cl)cccc3Cl)c3cccc(F)c32)cc1`
100

# remaining at 0.5 h, 1 µM lookup, item `O=C(O)c1cc(F)c(-n2cc(C(=O)c3c(Cl)cccc3Cl)c3ccccc32)c(F)c1`
30

Return reported remaining at 0.5 h, 1 µM; argument: `O=C(O)c1ccc(-n2cc(C(=O)c3c(Cl)cccc3C(F)(F)F)c3cccc(F)c32)cc1`
100

So what's the measured remaining at 0.5 h, 1 µM for this one? `Cc1cccc(Cl)c1C(=O)c1cn(-c2ccc(C(=O)O)cc2F)c2ncccc12`
73

Which remaining at 0.5 h, 1 µM value is on record for `O=C(O)c1ccc(-n2cc(C(=O)c3c(Cl)cccc3Cl)c3ccccc32)c(F)c1` ?
51

====

experiment: Half life in Sprague-Dawley rat at 10 mg/kg, po via gavage measured up to 24 hrs by LC-MS/MS analysis; type: ADME, organism-based; settings: in vivo
measurementKind: half-life (h)
Only the number, expressed in h, is required.

Request the reported half-life associated with `O=C([O-])c1ccc(-n2cc(C(=O)c3c(Cl)cccc3Cl)c3cccc(F)c32)cc1.[Na+]`
2.54

====

assay: Solubility of the compound at pH 2.1; settings: buffer
measurementKind: solubility (µM)
Lab book: enter the figure in µM, no units written.

Use these answered entries as a reference point.
>>> valuereported("O=C(O)c1ccc(-n2cc(C(=O)c3c(Cl)cccc3C(F)(F)F)c3ccccc32)cc1")
10
>>> valuereported("O=C([O-])c1ccc(-n2cc(C(=O)c3c(Cl)cccc3Cl)c3ccccc32)cc1.[Na+]")
52
>>> valuereported("O=C(O)c1ccc(-n2cc(C(=O)c3c(Cl)cccc3Cl)c3cccnc32)cc1")
1

Alright, here's another compound for you.
// lookup solubility for `Cc1cccc(Cl)c1C(=O)c1cn(-c2ccc(C(=O)O)cc2)c2ccccc12`
1

====

biological target: Cytochrome P450 3A4 (Homo sapiens); assay: Inhibition of CYP3A4 in human liver microsomes using testosterone as substrate preincubated for 5 mins followed by NADPH addition measured after 10 mins by LC-MS/MS analysis
Sequence (P08684 whole entry): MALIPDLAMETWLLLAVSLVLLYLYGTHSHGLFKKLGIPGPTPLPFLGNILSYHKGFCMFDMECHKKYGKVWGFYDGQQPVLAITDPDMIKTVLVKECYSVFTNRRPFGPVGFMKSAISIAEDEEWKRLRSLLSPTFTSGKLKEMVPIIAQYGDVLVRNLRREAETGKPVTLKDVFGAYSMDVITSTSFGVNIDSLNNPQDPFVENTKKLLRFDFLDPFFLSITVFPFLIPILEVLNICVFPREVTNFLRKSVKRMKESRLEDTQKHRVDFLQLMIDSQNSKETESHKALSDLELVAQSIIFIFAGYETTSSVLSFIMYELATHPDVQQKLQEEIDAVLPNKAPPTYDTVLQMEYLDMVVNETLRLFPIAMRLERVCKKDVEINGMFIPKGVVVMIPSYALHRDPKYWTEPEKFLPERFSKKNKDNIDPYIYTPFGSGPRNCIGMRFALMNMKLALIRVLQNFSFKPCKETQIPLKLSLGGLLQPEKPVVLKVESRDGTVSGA
measurementKind: pIC50
The scale used: pIC50 is minus the common logarithm of the concentration in molar units.

Some compounds with recorded pIC50:
>>> valuereported("O=C(O)c1ccc(-n2cc(C(=O)c3c(Cl)cccc3C(F)(F)F)c3c(F)cccc32)cc1")
4.79
>>> valuereported("O=C(O)c1ccc(-n2cc(C(=O)c3c(Cl)cccc3Cl)c3c(F)cccc32)c(F)c1")
5.08
>>> valuereported("Cc1cccc(Cl)c1C(=O)c1cn(-c2ccc(C(=O)O)cc2)c2c(F)cccc12")
4.57
>>> valuereported("O=C(O)c1ccc(-n2cc(C(=O)c3c(Cl)cccc3Cl)c3c(F)cccc32)cc1")
4.31

Now examine the next entry.
Any idea what its pIC50 is? The compound is `O=C(O)c1ccc(-n2cc(C(=O)c3c(Cl)cccc3Cl)c3ccccc32)cc1`
4.81

====

assay: Metabolic stability in simulated gastric fluid assessed as compound remaining after 45 mins; type: ADME; conditions: read-out: Stability
measurementKind: remaining at 0.75 h (%)
Expressed in %, but write only the number.

Which remaining at 0.75 h reading was recorded for the compound `O=C(O)c1ccc(-n2cc(C(=O)c3c(Cl)cccc3Cl)c3cccc(F)c32)cc1` ?
93

====

target: Nuclear receptor ROR-gamma (Homo sapiens, UniProt P51449); test: Transactivation of recombinant GAL4-DBD fused RORgammat LBD (unknown origin) expressed in HEK293T cells incubated for 18 to 24 hrs by dual-Glo luciferase assay; format: cell-based
Sequence (P51449 whole entry, the tested form may be a part): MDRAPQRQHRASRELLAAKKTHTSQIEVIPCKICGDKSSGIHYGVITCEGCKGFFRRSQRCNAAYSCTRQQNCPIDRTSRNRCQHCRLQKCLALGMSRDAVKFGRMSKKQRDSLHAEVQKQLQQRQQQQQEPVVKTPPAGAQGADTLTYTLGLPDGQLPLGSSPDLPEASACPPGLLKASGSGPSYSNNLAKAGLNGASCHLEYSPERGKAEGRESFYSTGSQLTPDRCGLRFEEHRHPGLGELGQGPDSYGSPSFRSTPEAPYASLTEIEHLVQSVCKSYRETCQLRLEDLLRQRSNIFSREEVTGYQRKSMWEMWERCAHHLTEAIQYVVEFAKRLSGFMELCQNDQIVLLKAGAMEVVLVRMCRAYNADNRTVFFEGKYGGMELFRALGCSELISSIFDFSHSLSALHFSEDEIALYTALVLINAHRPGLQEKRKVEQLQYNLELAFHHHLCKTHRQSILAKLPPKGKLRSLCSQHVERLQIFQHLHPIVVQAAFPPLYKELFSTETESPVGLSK
measurementKind: log10 IC50 (log10 of the value in µM)
All values: base-10 log of IC50 in µM.

>>> valuereported("O=C(O)c1ccc(-n2cc(C(=O)c3c(Cl)cccc3Cl)c3ccccc32)c(Cl)c1")
-0.91
>>> valuereported("O=C(O)c1ccc(-n2cc(C(=O)c3c(Cl)cccc3Cl)c3c(F)cccc32)cc1")
-1.12

Looking for the measured log10 IC50 of `O=C(O)c1ccc(-n2cc(C(=O)c3c(Cl)cc(Cl)cc3Cl)c3ccccc32)cc1` , can you help?
-0.97

Form field: reported log10 IC50 of `O=C(O)c1ccc(-n2cc(C(=O)c3c(Cl)cccc3C(F)(F)F)c3cccnc32)c(F)c1`
-1.82

Reported log10 IC50, compound `Cc1cccc2c(C(=O)c3ccccc3Cl)cn(-c3ccc(C(=O)O)cc3F)c12` : ____
-0.92

What does the data say about its log10 IC50? Entry: `O=C(O)c1ccc(-n2cc(C(=O)c3c(F)cc(F)cc3Cl)c3ccccc32)cc1`
-0.68

Which value of log10 IC50 has been reported for `O=C(O)c1ccc(-n2cc(C(=O)c3c(Cl)cccc3Cl)c3ccccc32)c(F)c1F` in the records?
-1.12

Reported log10 IC50 for `Cc1cc(-n2cc(C(=O)c3c(Cl)cccc3Cl)c3ccccc32)ccc1C(=O)O` : what is it?
0.30

Looking for the measured log10 IC50 of `Cc1cccc(Cl)c1C(=O)c1cn(-c2ccc(C(=O)O)cc2F)c2ncccc12` , can you help?
-1.57

Endpoint output: log10 IC50 of `O=C(O)c1ccc(-n2cc(C(=O)c3c(Cl)cccc3Cl)c3ccccc32)cc1` . Value?
-1.55

Requested field: log10 IC50. Item: `O=C(O)c1ccc(-n2cc(C(=O)c3c(Cl)cccc3C(F)(F)F)c3cccnc32)cc1`
-1.36
